Tested on: NCI-H460 lung
Assay: NCI tumour cell line growth inhibition, 48 h
Listed here: items and their measured TGI.
property-name: TGI

compound=COC(=O)NNC(c1ccc(Cl)cc1)c1ccc(Cl)cc1 property_name=TGI result="35.2 µM"
compound=Cc1c2c(cc3c1C(=O)C(=O)C1=C3OC[C@@H]1C)C(C)(C)CCC2 property_name=TGI result="28.1 µM"
compound=N=C(N)SCCC(=O)CCSC(=N)N property_name=TGI result="> 100 µM"
compound=COc1cccc(/C(Cl)=C(\C=O)c2cccc(OC)c2)c1 property_name=TGI result="26.4 µM"
compound=O=C(Nc1ccc(F)cc1F)c1cc(Cl)ccc1O property_name=TGI result="19.2 µM"
compound="O=NN(CCF)C(=O)NC1CC2CCC1C2 (stereo unspecified)" property_name=TGI result="> 100 µM"
compound=CC(=O)NC1=C(NCCCl)C(=O)c2ccccc2C1=O property_name=TGI result="> 100 µM"
compound=COC(=O)[C@@](C)(COC(=O)C(C)(C)C)NC(=O)OC(C)(C)C property_name=TGI result="> 100 µM"
compound=CCN(CC)CCCNC(=O)c1cc2cc(NC(=O)c3cc4cc([N+](=O)[O-])ccc4[nH]3)ccc2[nH]1 property_name=TGI result="> 100 µM"
compound=CCc1ccccc1NC(=O)/C=C/c1ccccc1 property_name=TGI result="> 100 µM"
compound="CC1(C)C2CCC3(OCCO3)C1C(O)C2 (stereo unspecified)" property_name=TGI result="> 100 µM"
compound=CN1CCN(CCOc2ccc(-c3cnc4c(-c5cccc(F)c5)cnn4c3)cc2)CC1 property_name=TGI result="3.19 µM"
compound="COC(=O)C1=C(O)C(C(=O)OC)[C@]2(O)[C@@H](C(=O)OC)[C@H]1C[C@@H](c1ccccc1)[C@@H]2C(=O)OC (stereo partly specified)" property_name=TGI result="37.8 µM"
compound=O=c1cccccc1NCCCCCCCNc1cccccc1=O property_name=TGI result="> 100 µM"
compound=CN(C)c1ccc(/C=C/C(=O)N[C@@H]2C(=O)N3[C@@H]2SC(C)(C)[C@@H]3C(=O)O)cc1 property_name=TGI result="> 100 µM"
compound="CCOC(=O)C(NC(=O)CC)(Nc1ccc(S(=O)(=O)Nc2onc(C)c2C)cc1)C(F)(F)F (stereo unspecified)" property_name=TGI result="> 100 µM"
compound="Oc1ccccc1C1C=C(c2ccccc2)NC(N2CCCCC2)=C1c1nc2ccccc2[nH]1 (stereo unspecified)" property_name=TGI result="28 µM"
compound="O=[N+]([O-])c1nccn1CC(O)CN1CCCCC1 (stereo unspecified)" property_name=TGI result="> 100 µM"
compound=COC(=O)CCc1c(Cc2ccc[nH]2)[nH]c(C(=O)OCc2ccccc2)c1C property_name=TGI result="> 100 µM"
compound="COC(=O)C(=O)C(C(=O)C(=O)Nc1cccc([N+](=O)[O-])c1)c1nc2ccc(Cl)cc2[nH]c1=O (stereo unspecified)" property_name=TGI result="> 100 µM"
compound="CCC(COC(=O)CC[C@@H](NC(=O)C(C)NC(=O)C(C)OC1C(O)C(CO)OC(OCc2ccccc2)C1NC(C)=O)C(N)=O)NC1c2ccccc2Nc2cccc([N+](=O)[O-])c21 (stereo partly specified)" property_name=TGI result="> 100 µM"

====

Test system: KM12 colon
Assay: NCI tumour cell line growth inhibition, 48 h
property-name: TGI

molecule=CC1(c2cc3c(cc2Br)OCO3)SCCCS1 result="> 100 µM"
molecule=CC(C)c1nc(N(C)S(C)(=O)=O)nc(-c2ccc(F)cc2)c1/C=C/[C@@H](O)C[C@@H](O)CC(=O)O result="> 100 µM"
molecule="CN1N=C(c2ccncc2)OC1c1cccc(C(F)(F)F)c1 (configuration not stated)" result="> 100 µM"
molecule="CC(=O)NC(CCCCN)C(=O)NCc1ccccc1 (configuration not stated)" result="> 100 µM"
molecule=COc1ccc(NC(=O)/C=C(C)/C=C/C=C(C)/C=C/C2=C(C)CCCC2(C)C)cc1 result="14.5 µM"
molecule=O=c1[nH]c(=O)n(COCCO)c2ccsc12 result="> 100 µM"
molecule=Cc1c(C(=O)/C=C/C=C/c2ccccc2)[n+](=O)c2ccccc2n1[O-] result="43.7 µM"
molecule=Cc1cc(Cl)ccc1OCC(=O)Nc1nc(N)nc(N)n1 result="> 100 µM"
molecule="COC(=O)c1cc2c(cc1Cl)SC1=NN(C)S(=O)N1S2(=O)=O (configuration not stated)" result="> 100 µM"
molecule="COC(=O)C1=C(O)C(C(=O)OC)[C@]2(O)[C@@H](C(=O)OC)[C@H]1C[C@@H](c1ccccc1)[C@@H]2C(=O)OC (some centres not stated)" result="25.8 µM"
molecule=CC(=O)NC1=C(NCCCl)C(=O)c2ccccc2C1=O result="> 100 µM"
molecule=CN1CCN(CCOc2ccc(-c3cnc4c(-c5cccc(F)c5)cnn4c3)cc2)CC1 result="3.06 µM"

====

System: HOP-92 NSCLC
Assay: NCI tumour cell line growth inhibition, 48 h; in the data active = GI50 below about 0.43 µM; inactive = the rest
Outcomes: active, inactive

molecule=C#CCNC(=S)N/N=C(\C)c1ccccn1 classification=active
molecule="C=C(C)C1CC/C(C)=C/CC[C@]2(C)O[C@@H]2CCC2=CC1OC2=O (some centres undefined)" classification=inactive
molecule="CC1CN(S(=O)(=O)c2oc(-c3ccc(Cl)cc3)nc2C#N)CC(C)O1 (centres undefined)" classification=inactive
molecule="CN(C)CCNC(=O)c1ccc(-c2nc3ccc4[nH]ncc4c3c3c2C2CCC3C2)cc1 (centres undefined)" classification=inactive

====

GI50 for assorted compounds
Tested on: HT29 colon
Assay: NCI tumour cell line growth inhibition, 48 h
property-name: GI50

compound=O=C(/C=C/c1ccc(C(F)(F)F)cc1)Nc1ccc(C=C2c3ccccc3C(=O)c3ccccc32)cc1 target_or_test_system="HT29 colon" result="4560 nM"
compound="O=C1C2=C(C(=O)c3cnccc31)C1C=CC2CC1 (stereo not drawn)" target_or_test_system="HT29 colon" result="2580 nM"
compound=CCN1CCN(c2cc(C)nc(N(CCCNc3ccnc4cc(Cl)ccc34)Cc3ccc4c(c3)OCO4)n2)CC1 target_or_test_system="HT29 colon" result="1950 nM"

====

System: SK-OV-3 ovarian
Test: NCI tumour cell line growth inhibition, 48 h
Entries annotated with measured TGI
property-name: TGI

compound=CC[C@@]1(OC(=O)CN)C(=O)OCc2c1cc1n(c2=O)Cc2c-1nc1cc3c(cc1c2CCl)OCO3 result="> 31.6 µM"
compound="CCC(COC(=O)CC[C@@H](NC(=O)C(C)NC(=O)C(C)OC1C(O)C(CO)OC(OCc2ccccc2)C1NC(C)=O)C(N)=O)NC1c2ccccc2Nc2cccc([N+](=O)[O-])c21 (stereo not given in full)" result="> 100 µM"
compound=Cc1c(OCc2ccccc2)c(=O)ccn1CCc1c[nH]c2ccccc12 result="> 100 µM"
compound=O=C1C=C2CCC[C@H]3OC(=O)C[C@@]23CC1 result="> 100 µM"
compound=O=C1C[C@@H]2[C@@H](CCC23CC3)N1 result="> 100 µM"

====

Test system: SF-268 CNS
Assay: NCI tumour cell line growth inhibition, 48 h
Entries and their TGI
property-name: TGI

molecule="CC12CCCCC1=[N+]([O-])C(C)(C)N2O (stereo not drawn)" target_or_test_system="SF-268 CNS" result="> 100 µM"
molecule="COc1ccc2c(c1)CC[C@@H]1C2CC[C@](C)(C#N)C1CC#N (stereo partly drawn)" target_or_test_system="SF-268 CNS" result="> 100 µM"
molecule=O=C1C(=O)N(c2ccc(Cl)cc2)C(=O)C(=O)C1c1nc2ccccc2s1 target_or_test_system="SF-268 CNS" result="> 100 µM"

====

Each entry below lists one item and its recorded TGI value.
Test system: PC-3 prostate
Experiment: NCI tumour cell line growth inhibition, 48 h
property-name: TGI

molecule="CC(=O)OC1C2CCC3C(C)(O)C4CC(O)C(C)(C)C4(O)C(O)CC13CC2(C)O (stereo not drawn)" target_or_test_system="PC-3 prostate" result="> 100 µM"
molecule="CC12CCCCC1=[N+]([O-])C(C)(C)N2O (stereo not drawn)" target_or_test_system="PC-3 prostate" result="> 100 µM"
molecule=Cc1ccc(NC2=NCCO2)c2c1CCC2 target_or_test_system="PC-3 prostate" result="> 100 µM"
molecule=CNNC(=N\S(=O)(=O)c1cc(C)c(Cl)cc1SCc1ccccc1)/N=C/c1ccc([N+](=O)[O-])s1 target_or_test_system="PC-3 prostate" result="> 100 µM"
molecule=CN1CCN(Cc2ccc(NC(=O)c3cncc(C#Cc4cnc(N)cc4C#N)c3)cc2C(F)(F)F)CC1 target_or_test_system="PC-3 prostate" result="19 µM"
molecule=O=c1[nH]c(=O)n(COCCO)c2ccsc12 target_or_test_system="PC-3 prostate" result="> 100 µM"
molecule="CCCCCN(CCCCC)CC(O)c1cc(Cl)ccc1OC (stereo not drawn)" target_or_test_system="PC-3 prostate" result="26.8 µM"
molecule=O=C(O)CC[P+](c1ccccc1)(c1ccccc1)c1ccccc1 target_or_test_system="PC-3 prostate" result="> 100 µM"
